These measurements were taken from the RNAGym collection of RNA variant scans (doi:10.1093/molbev/msab373).

B1: Azoarcus group I ribozyme (parent)
chain: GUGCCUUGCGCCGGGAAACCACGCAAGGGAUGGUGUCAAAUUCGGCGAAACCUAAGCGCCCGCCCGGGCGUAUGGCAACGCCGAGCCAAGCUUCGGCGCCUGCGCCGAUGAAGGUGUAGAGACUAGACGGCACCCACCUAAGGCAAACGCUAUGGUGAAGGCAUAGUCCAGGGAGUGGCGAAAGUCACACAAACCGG

Variants of: B1
Assay: reverse-splicing fitness (ratio to wild type); higher = more active; in vitro selection; Mg2+ level not given
VALUE_TYPE: reverse-splicing fitness
Numbers only.

Hey, quick one: what's reverse-splicing fitness for each of these?
1. C82U A120U A145C C150A C169A
2. A111C A120C A145G C169A
3. A120U A145U C150U C169G U176G
4. C82G A111C A120C A145U C169U
5. C82U A120G A145C C150G C169A
6. C82A A111G A120C C150A C169A
7. A111C A120G C169U U176C
8. C82A A111C A145C C150G U176G

Return:
1. 0.00144
2. 0.0109
3. 0.00311
4. 0.0143
5. 0.00904
6. 0.0113
7. 0.0498
8. 0.00408
